Each record here notes measured MFI at 33.3 nM.
TESTED ON: T1, human CTLA4 on CHO cells (human, UniProt P16410 36-223)
T1 construct: whole, on cells; CHO cells stably expressing CTLA4; also called huCTLA4
T1 sequence (P16410 36-223): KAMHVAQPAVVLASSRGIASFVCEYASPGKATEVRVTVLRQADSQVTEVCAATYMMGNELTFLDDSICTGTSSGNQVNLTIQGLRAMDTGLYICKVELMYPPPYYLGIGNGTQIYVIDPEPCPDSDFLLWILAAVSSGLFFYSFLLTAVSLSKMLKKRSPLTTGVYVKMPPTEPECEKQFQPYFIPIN
TEST PROTOCOL: flow cytometry, CHO cells stably expressing CTLA4
Write down the numeric answer in MFI and omit the unit.

Known results for binders:
>  <BINDER>
variant CD80 IgV-Fc E35D/M47L/A71G/L85M (Fc fusion, not shown: a dimerising Fc or GST) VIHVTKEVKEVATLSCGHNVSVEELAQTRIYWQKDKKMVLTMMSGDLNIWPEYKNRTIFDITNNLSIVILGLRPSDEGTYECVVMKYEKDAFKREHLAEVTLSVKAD

>  <UNIT LABEL>
MFI

>  <OBSERVED RESULT>
16600

$$$$
>  <BINDER>
variant CD80 IgV-Fc M47I/A71G (Fc fusion, not shown: a dimerising Fc or GST) VIHVTKEVKEVATLSCGHNVSVEELAQTRIYWQKEKKMVLTMMSGDINIWPEYKNRTIFDITNNLSIVILGLRPSDEGTYECVVLKYEKDAFKREHLAEVTLSVKAD

>  <UNIT LABEL>
MFI

>  <OBSERVED RESULT>
27800

$$$$
>  <BINDER>
variant CD80 IgV-Fc H18Y/E35D (Fc fusion, not shown: a dimerising Fc or GST) VIHVTKEVKEVATLSCGYNVSVEELAQTRIYWQKDKKMVLTMMSGDMNIWPEYKNRTIFDITNNLSIVILALRPSDEGTYECVVLKYEKDAFKREHLAEVTLSVKAD

>  <UNIT LABEL>
MFI

>  <OBSERVED RESULT>
26300

$$$$

Consider the record given below.
**Q:** Could you tell me which MFI at 33.3 nM is on file for variant CD80 IgV-Fc D46V/M47I/A71G (Fc fusion, not shown: a dimerising Fc or GST) VIHVTKEVKEVATLSCGHNVSVEELAQTRIYWQKEKKMVLTMMSGVINIWPEYKNRTIFDITNNLSIVILGLRPSDEGTYECVVLKYEKDAFKREHLAEVTLSVKAD ?
**A:** 28400
